Just for reference, patent US11834453B2 is where these values come from.

study.target: UniProt P04626
pIC50: −log10 of the molar value.
Rule: pIC50 under 7 gives FALSE, otherwise TRUE.

molecule: Cn1cnc2cc(Oc3ccc(Nc4ncnc5cnc(N6CCC67COC7)nc45)cc3Cl)ccc21.O=C(O)C(F)(F)F [Example 145]
label: TRUE
--
molecule: COc1ncc2ncnc(Nc3ccc(Oc4ccc5csnc5c4)c(C)c3)c2n1 [Example 7, 2,2,2-trifluoroacetate]
label: TRUE
--
molecule: Cc1cc(Nc2ncnc3cnc(N)nc23)ccc1Oc1ccc2c(c1)ncn2C [Example 206, bis(2,2,2-trifluoroacetate)]
label: TRUE
--
molecule: COCCOc1ncc2ncnc(Nc3ccc(Oc4ccc5c(c4)ncn5C)c(C)c3)c2n1 [Example 76, 2,2,2-trifluoroacetate]
label: FALSE
--
molecule: Cc1cc(Nc2ncnc3cnc(N4CCC(C)S4(=O)=O)nc23)ccc1Oc1ccc2c(c1)ncn2C (stereo not shown) [Example 267]
label: TRUE

###

Below are IC50 values measured for UniProt P00533.
quantity.name: IC50

structure.notation: Cn1cnc2cc(Oc3ccc(Nc4ncnc5cnc(N6CCN(CC(F)F)CC6)nc45)cc3Cl)ccc21
quantity.name: IC50
data.value: ≥ 10 µM

structure.notation: Cn1cnc2cc(Oc3ccc(Nc4ncnc5cnc(N6C[C@H]7C[C@@H]6CO7)nc45)cc3Cl)ccc21
quantity.name: IC50
data.value: ≥ 10 µM

structure.notation: Clc1cc(Nc2ncnc3cnc(N4CC[C@@]45CCOC5)nc23)ccc1Oc1ccn2ncnc2c1
quantity.name: IC50
data.value: 0.76 µM

structure.notation: O[C@@H]1CN(c2ncc3ncnc(Nc4ccc(Oc5ccn6ncnc6c5)c(Cl)c4)c3n2)CC1(F)F
quantity.name: IC50
data.value: 9.72 µM

structure.notation: Cn1cnc2cc(Oc3ccc(Nc4ncnc5cnc(N6CC[C@H](CC#N)C6)nc45)cc3Cl)ccc21
quantity.name: IC50
data.value: ≥ 10 µM

structure.notation: Cc1nc(-c2ncc3ncnc(Nc4ccc(Oc5ccc6c(c5)ncn6C)c(C)c4)c3n2)cs1
quantity.name: IC50
data.value: ≥ 10 µM

structure.notation: Cc1cc(Nc2ncnc3cnc(N4CCN(C)[C@@H](C)C4)nc23)ccc1Oc1ccc2c(c1)ncn2C
quantity.name: IC50
data.value: ≥ 10 µM

###

study.target: ErbB2 insYVMA (HER2-YVMA, SEQ ID NO: 2) (Homo sapiens, UniProt P04626, INS775YVMA/P1170A)
Sequence (P04626 with tags, fused parts or gaps INS775YVMA/P1170A limits assumed): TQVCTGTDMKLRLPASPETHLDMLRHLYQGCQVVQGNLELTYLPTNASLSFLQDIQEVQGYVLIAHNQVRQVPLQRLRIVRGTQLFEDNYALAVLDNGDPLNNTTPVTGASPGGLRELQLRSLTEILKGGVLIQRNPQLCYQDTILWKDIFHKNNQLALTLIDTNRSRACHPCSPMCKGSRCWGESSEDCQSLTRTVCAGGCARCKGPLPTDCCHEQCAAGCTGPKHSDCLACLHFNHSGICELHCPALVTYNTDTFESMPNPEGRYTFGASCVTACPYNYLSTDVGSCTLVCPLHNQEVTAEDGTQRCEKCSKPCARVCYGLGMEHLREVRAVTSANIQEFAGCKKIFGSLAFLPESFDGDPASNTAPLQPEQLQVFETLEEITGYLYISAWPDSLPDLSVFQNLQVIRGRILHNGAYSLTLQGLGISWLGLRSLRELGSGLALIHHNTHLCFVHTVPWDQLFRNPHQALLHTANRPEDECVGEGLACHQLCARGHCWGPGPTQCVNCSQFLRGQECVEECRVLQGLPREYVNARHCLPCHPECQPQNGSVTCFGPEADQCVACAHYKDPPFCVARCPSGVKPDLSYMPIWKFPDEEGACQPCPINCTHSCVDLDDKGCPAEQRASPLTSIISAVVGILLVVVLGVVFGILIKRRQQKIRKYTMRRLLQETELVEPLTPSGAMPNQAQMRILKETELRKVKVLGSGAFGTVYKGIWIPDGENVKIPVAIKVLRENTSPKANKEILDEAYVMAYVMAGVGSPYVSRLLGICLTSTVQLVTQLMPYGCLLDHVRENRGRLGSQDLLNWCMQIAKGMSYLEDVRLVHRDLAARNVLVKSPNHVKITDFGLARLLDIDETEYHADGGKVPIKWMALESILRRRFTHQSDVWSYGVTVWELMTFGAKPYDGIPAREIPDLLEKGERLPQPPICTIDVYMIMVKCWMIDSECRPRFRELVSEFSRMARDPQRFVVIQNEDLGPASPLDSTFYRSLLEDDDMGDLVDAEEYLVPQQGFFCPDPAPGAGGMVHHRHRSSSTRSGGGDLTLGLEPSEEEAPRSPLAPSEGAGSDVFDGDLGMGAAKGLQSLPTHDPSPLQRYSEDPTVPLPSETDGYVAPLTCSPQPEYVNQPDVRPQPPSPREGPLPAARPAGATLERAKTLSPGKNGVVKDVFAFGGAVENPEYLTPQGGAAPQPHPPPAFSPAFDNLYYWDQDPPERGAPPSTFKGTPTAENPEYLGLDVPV
assay.notes: biochemical
condition.description: ErbB2 insYVMA enzyme assay; read-out: Assay 1 IC50
Hi! Just check whether IC50 is below 30 nM. Below gives YES, equal or above gives NO.

compound: Cc1cc(Nc2ncnc3cnc(O[C@H]4CNCC4(F)F)nc23)ccc1Oc1ccc2c(c1)ncn2C [Example 303]
label: NO
//
compound: Cc1cc(Nc2ncnc3cnc(N4CCOC[C@@H]4C)nc23)ccc1Oc1ccc2c(c1)ncn2C [Example 258]
label: NO
//
compound: Cc1cc(Nc2ncnc3cnc(N4CC5(C4)CC(O)(C(F)(F)F)C5)nc23)ccc1Oc1ccc2c(c1)ncn2C [Example 487]
label: NO
//
compound: Cc1cc(Nc2ncnc3cnc(N4CCN5C(=O)COC[C@H]5C4)nc23)ccc1Oc1ccc2c(c1)ncn2C [Example 346]
label: NO
//
compound: Cc1ncc(-c2ncc3ncnc(Nc4ccc(Oc5ccc6c(c5)ncn6C)c(C)c4)c3n2)o1 [Example 223]
label: NO
//
compound: Cc1cc(Nc2ncnc3cnc(N(C)CCC(C)(C)O)nc23)ccc1Oc1ccc2c(c1)ncn2C [Example 102]
label: YES
//
compound: Clc1cc(Nc2ncnc3cnc(N4CCO[C@H]5C[C@H]54)nc23)ccc1Oc1ccn2ncnc2c1 [Example 384]
label: YES
//
compound: C[C@H]1CN(c2ncc3ncnc(Nc4ccc(Oc5ccn6ncnc6c5)c(Cl)c4)c3n2)C[C@@H]1O [Example 340]
label: YES
//
compound: CO[C@@H]1CCCN(c2ncc3ncnc(Nc4ccc(Oc5ccc6c(c5)ncn6C)c(C)c4)c3n2)C1 [Example 227]
label: NO
//
compound: Cc1cc(Nc2ncnc3cnc(NCC4CC4)nc23)ccc1Oc1ccc2c(c1)ncn2C [Example 20]
label: NO
//
compound: CNc1ncc2ncnc(Nc3ccc(Oc4ccc5csnc5c4)c(C)c3)c2n1 [Example 241]
label: YES
//
compound: CO[C@H]1C[C@@H](Nc2ncc3ncnc(Nc4ccc(Oc5ccc6c(c5)ncn6C)c(C)c4)c3n2)C1 [Example 260]
label: NO
//
compound: Cc1cc(Nc2ncnc3cnc(N4CCN(CC(F)F)CC4)nc23)ccc1Oc1ccc2c(c1)ncn2C [Example 477]
label: NO
//
compound: O[C@H]1CN(c2ncc3ncnc(Nc4ccc(Oc5ccn6ncnc6c5)c(Cl)c4)c3n2)CC[C@@H]1F [Example 338]
label: YES
//
compound: Cc1cc(Nc2ncnc3cnc(N4CCC(F)(F)C4)nc23)ccc1Oc1ccc2c(c1)ncn2C [Example 299]
label: NO
//
compound: Clc1cc(Nc2ncnc3cnc(N4C[C@@H]5C[C@H]4CO5)nc23)ccc1Oc1ccn2ncnc2c1 [Example 426]
label: YES
//
compound: O[C@@H]1C[C@@H]2C[C@H]1CN2c1ncc2ncnc(Nc3ccc(Oc4ccn5ncnc5c4)c(Cl)c3)c2n1 [Example 333]
label: YES
//
compound: Cc1cc(Nc2ncnc3cnc(N4CCNC(=O)C4)nc23)ccc1Oc1ccc2c(c1)ncn2C [Example 198]
label: YES
//
compound: Cc1cc(Nc2ncnc3cnc(N(C)[C@H]4CN(C)C[C@H]4F)nc23)ccc1Oc1ccc2c(c1)ncn2C [Example 99]
label: YES
//
compound: Cc1cc(Nc2ncnc3cnc(OCC4(F)CN(C)C4)nc23)ccc1Oc1ccc2c(c1)ncn2C [Example 292]
label: NO
//
compound: CON1CCN(c2ncc3ncnc(Nc4ccc(Oc5ccn6ncnc6c5)c(Cl)c4)c3n2)CC1 [Example 436]
label: YES
//
compound: Cc1cc(Nc2ncnc3cnc(N4CC[C@@](C)(O)C4)nc23)ccc1Oc1ccn2ncnc2c1 [Example 110]
label: NO
//
compound: Cc1cnc(-c2ncc3ncnc(Nc4ccc(Oc5ccc6c(c5)ncn6C)c(C)c4)c3n2)o1 [Example 231]
label: NO
//
compound: Cc1cc(Nc2ncnc3cnc(N4C[C@@H]5[C@H](C4)[C@@H]4CC[C@H]5O4)nc23)ccc1Oc1ccc2c(c1)ncn2C [Example 363]
label: YES
//
compound: Cc1cc(Nc2ncnc3cnc(O[C@H]4CCN(C)C[C@@H]4F)nc23)ccc1Oc1ccc2c(c1)ncn2C [Example 288]
label: NO
//
compound: Cc1cc(Nc2ncnc3cnc(N4CCOCC4)nc23)ccc1Oc1ccn2ncnc2c1 [Example 412]
label: YES
//
compound: Cn1cnc2cc(Oc3ccc(Nc4ncnc5cnc(N6CCOC7(CC7)C6)nc45)cc3Cl)ccc21 [Example 449]
label: NO
//
compound: Cc1cc(Nc2ncnc3cnc(N4C[C@@H](F)[C@@H](O)C4)nc23)ccc1Oc1ccc2c(c1)ncn2C [Example 91]
label: YES
//
compound: Cc1cc(Nc2ncnc3cnc(N4C[C@H]5C[C@@H]4CO5)nc23)ccc1Oc1ccn2ncnc2c1 [Example 121]
label: NO
//
compound: Cn1cnc2cc(Oc3ccc(Nc4ncnc5cnc(N6CC[C@@H](C#N)C6)nc45)cc3Cl)ccc21 [Example 444]
label: YES

###

study.target: UniProt P00533
assay.notes: Cellular phosphorylation assay, EGF-stimulated EGFR phosphorylation in engineered NIH 3T3 cells, Phospho-EGFR DuoSet IC ELISA, Assay 5
Type: cell-based
Entries and their measured IC50 follow.
quantity.name: IC50

compound: Cc1c(Oc2ccc3c(c2)ncn3C)ccc(Nc2ncnc3cnc(N4CC[C@](C)(O)C4)nc23)c1F [Example 310]
data.value: ≥ 5 µM

compound: Cc1cc(Nc2ncnc3cnc(N4CCOC[C@H]4C)nc23)ccc1Oc1ccc2c(c1)ncn2C
data.value: ≥ 5 µM

compound: Cc1cc(Nc2ncnc3cnc(N4CC[C@](C)(O)C4)nc23)ccc1Oc1ccn2ncnc2c1
data.value: ≥ 5 µM

compound: Cc1cc(Nc2ncnc3cnc(N(C)[C@H]4C[C@@H](O)C4)nc23)ccc1Oc1ccc2c(c1)ncn2C
data.value: ≥ 5 µM

compound: CON(C)CCNc1ncc2ncnc(Nc3ccc(Oc4ccc5c(c4)ncn5C)c(C)c3)c2n1
data.value: ≥ 5 µM

compound: CCON1CCN(c2ncc3ncnc(Nc4ccc(Oc5ccc6c(c5)ncn6C)c(C)c4)c3n2)CC1
data.value: ≥ 5 µM

compound: Cc1cc(Nc2ncnc3cnc(N4CCO[C@@H]5C[C@@H]54)nc23)ccc1Oc1ccc2c(c1)ncn2C
data.value: ≥ 5 µM

###

Entries and their measured IC50 follow.
study.target: EGFR (Homo sapiens (Human))
Sequence (P00533 25-1210): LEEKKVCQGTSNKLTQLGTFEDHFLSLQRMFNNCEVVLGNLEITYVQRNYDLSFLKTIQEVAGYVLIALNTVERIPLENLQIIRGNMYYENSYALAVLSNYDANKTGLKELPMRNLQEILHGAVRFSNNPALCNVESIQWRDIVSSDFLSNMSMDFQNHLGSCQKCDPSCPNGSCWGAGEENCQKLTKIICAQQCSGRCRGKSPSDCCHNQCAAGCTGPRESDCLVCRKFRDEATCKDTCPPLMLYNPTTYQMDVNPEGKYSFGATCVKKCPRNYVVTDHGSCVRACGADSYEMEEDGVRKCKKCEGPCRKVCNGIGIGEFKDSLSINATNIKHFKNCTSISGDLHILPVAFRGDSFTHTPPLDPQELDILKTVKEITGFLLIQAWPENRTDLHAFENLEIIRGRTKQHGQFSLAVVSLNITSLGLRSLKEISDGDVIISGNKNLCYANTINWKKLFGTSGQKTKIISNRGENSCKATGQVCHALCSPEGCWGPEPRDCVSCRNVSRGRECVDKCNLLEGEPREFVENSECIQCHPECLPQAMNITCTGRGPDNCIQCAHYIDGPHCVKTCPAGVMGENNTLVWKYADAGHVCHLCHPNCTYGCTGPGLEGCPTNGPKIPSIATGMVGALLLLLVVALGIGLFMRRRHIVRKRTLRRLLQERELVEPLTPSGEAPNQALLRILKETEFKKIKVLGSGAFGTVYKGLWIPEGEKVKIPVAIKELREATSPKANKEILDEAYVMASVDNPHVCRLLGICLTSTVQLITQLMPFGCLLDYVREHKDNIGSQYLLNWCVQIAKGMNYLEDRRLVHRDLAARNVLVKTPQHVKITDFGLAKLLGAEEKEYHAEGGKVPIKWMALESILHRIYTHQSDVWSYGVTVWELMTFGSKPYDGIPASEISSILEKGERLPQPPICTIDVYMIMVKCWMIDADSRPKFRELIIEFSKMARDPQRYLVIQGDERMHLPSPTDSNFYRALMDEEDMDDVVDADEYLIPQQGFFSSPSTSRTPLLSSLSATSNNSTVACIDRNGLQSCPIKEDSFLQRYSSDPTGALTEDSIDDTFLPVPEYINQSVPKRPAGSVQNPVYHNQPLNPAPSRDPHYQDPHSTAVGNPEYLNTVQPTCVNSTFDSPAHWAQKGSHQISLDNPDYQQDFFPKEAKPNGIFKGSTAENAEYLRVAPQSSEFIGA

compound: CC1(O)CCN(c2ncc3ncnc(Nc4ccc(Oc5ccn6ncnc6c5)c(Cl)c4)c3n2)CC1 [Example 435]
study.target: EGFR (Homo sapiens (Human))
IC50: 4.91 µM

compound: Cc1cc(Nc2ncnc3cnc(N4CC(C)(O)CO4)nc23)ccc1Oc1ccc2c(c1)ncn2C (centres unmarked) [Example 191]
study.target: EGFR (Homo sapiens (Human))
IC50: ≥ 10 µM

compound: Cc1cc(Nc2ncnc3cnc(NCC4CC4)nc23)ccc1Oc1ccc2c(c1)ncn2C [Example 20]
study.target: EGFR (Homo sapiens (Human))
IC50: ≥ 10 µM

compound: CON1CCN(c2ncc3ncnc(Nc4ccc(Oc5ccn6ncnc6c5)c(C)c4F)c3n2)CC1 [Example 95]
study.target: EGFR (Homo sapiens (Human))
IC50: ≥ 10 µM

compound: Cc1cc(Nc2ncnc3cnc(N4CCN(CC(F)F)CC4)nc23)ccc1Oc1ccc2c(c1)ncn2C [Example 477]
study.target: EGFR (Homo sapiens (Human))
IC50: ≥ 10 µM
